# Test system: SF-295
# test-description: NCI tumour cell line growth inhibition, 48 h
Calls of active or inactive are those of the source. No stated cut-off is given here; in the data, active = GI50 up to about 1.1 µM and inactive = higher.
Labels: T for active, F for inactive

>>> qualitative_label("COc1ccc2ccccc2c1CN1CCOCCOCCN(Cc2c(OC)ccc3ccccc23)CCOCCOCC1")
"F"
>>> qualitative_label("CSc1ccc2c(cc1=O)[C@@H](NC(C)=O)CCc1cc(O)c(O)c(O)c1-2")
"F"
>>> qualitative_label("Cc1cc(NS(=O)(=O)c2ccc(/N=[N+](\\[O-])c3ccc(S(=O)(=O)Nc4cc(C)on4)cc3)cc2)no1")
"F"
>>> qualitative_label("CN(/N=C/c1ccnc2ccccc12)c1ccc(Cl)cc1[N+](=O)[O-]")
"F"
>>> qualitative_label("CCC1(OC(=O)CN2CCN(CCO)CC2)C(=O)OCc2c1cc1n(c2=O)Cc2cc3ccccc3nc2-1 (stereo unspecified)")
"T"
>>> qualitative_label("COc1ccc(/C=N/n2c(Cc3ccc(Cl)cc3)n[nH]c2=O)c(OC)c1")
"F"
>>> qualitative_label("O=c1[nH]cnc2c1sc1nc3ccccc3n12")
"F"
>>> qualitative_label("CC1(C)OC2OC(COC(=O)C=[N+]=[N-])C3OC(C)(C)OC3C2O1 (stereo unspecified)")
"F"
>>> qualitative_label("COc1cccc(/C=N/n2c(-c3ccccc3)n[nH]c2=O)c1")
"F"
>>> qualitative_label("CCOC(=O)C(CS)NC(=O)CCCCCCCC(=O)O (stereo unspecified)")
"F"
>>> qualitative_label("COc1cc2c(cc1OCCCN1CCOCC1)N=C[C@@H]1CCCN1C2=O")
"F"
